# Assayed target: PI3K δ (Homo sapiens)
# Sequence (O00329 whole entry): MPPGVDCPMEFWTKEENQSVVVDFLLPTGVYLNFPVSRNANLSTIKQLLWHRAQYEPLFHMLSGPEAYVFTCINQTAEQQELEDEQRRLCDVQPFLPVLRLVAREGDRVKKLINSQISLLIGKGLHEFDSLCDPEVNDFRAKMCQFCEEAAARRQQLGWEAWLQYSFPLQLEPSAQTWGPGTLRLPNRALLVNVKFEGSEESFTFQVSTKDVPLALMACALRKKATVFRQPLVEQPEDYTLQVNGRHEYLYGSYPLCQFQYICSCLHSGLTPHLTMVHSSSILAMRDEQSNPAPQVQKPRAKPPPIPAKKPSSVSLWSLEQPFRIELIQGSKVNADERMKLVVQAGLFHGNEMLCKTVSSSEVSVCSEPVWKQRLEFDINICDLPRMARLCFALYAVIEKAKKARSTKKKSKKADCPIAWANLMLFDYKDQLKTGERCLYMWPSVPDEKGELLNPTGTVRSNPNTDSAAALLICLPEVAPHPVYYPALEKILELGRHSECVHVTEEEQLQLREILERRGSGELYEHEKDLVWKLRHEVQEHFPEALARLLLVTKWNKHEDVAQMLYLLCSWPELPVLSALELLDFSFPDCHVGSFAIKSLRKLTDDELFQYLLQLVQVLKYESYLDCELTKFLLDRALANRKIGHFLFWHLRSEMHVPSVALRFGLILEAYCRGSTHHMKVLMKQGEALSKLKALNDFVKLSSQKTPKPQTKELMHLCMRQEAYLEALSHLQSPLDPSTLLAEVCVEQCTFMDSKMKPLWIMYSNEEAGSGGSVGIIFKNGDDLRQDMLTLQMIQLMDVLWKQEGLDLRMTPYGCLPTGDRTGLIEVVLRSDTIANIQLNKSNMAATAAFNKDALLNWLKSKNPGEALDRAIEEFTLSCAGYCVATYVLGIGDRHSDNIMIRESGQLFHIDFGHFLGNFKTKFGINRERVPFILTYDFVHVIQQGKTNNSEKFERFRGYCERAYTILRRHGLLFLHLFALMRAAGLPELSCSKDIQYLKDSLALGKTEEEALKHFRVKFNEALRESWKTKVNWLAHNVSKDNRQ
# Sequence (P27986 whole entry partner): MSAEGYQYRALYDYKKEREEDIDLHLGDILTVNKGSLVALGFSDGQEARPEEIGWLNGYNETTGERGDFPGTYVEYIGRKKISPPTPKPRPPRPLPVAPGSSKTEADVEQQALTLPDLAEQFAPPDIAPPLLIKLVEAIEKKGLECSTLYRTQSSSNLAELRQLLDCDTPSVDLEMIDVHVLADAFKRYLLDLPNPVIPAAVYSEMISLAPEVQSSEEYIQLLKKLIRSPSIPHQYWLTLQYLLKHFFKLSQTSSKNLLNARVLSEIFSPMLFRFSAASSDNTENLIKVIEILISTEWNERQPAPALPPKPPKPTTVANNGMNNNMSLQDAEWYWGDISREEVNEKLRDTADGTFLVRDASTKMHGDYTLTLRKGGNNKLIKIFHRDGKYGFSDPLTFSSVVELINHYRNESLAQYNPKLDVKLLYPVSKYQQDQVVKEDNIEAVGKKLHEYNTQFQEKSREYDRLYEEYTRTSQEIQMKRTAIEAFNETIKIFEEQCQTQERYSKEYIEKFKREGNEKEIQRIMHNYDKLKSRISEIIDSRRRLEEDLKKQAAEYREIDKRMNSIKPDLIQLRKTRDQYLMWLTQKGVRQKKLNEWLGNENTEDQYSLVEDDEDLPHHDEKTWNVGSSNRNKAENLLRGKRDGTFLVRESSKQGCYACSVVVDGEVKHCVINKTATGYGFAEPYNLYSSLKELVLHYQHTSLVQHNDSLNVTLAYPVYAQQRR
# Method notes: PI 3-Kinase (human) HTRF assay, PI3K δ
# Assay setup: read-out: PI3K δ IC50; Table 2
Measured endpoint: IC50

Solved cases below.
In [3]: df
Out[3]:
                               entry_smiles         assayed_target  reported_measurement
0  CC(=O)N1CCC(n2nc(-c3cc4cc(O)cc(Cl)c4[nH]3)c3c(N)ncnc32)CC1  PI3K δ (Homo sapiens)           10 to 25 nM
1  Nc1ncnc2c1c(-c1cc3cc(O)ccc3[nH]1)nn2CCN1CCOCC1  PI3K δ (Homo sapiens)              > 500 nM

// recorded IC50 for Nc1ncnc2c1c(-c1cc3cccc(O)c3[nH]1)nn2C1CCOCC1 : 50 to 100 nM

The molecule identified as Nc1ncnc2c1c(-c1cc3cccc(O)c3[nH]1)nn2C1CCCC1 registered its IC50 at 100 to 500 nM

The reported value for Nc1ncnc2c1c(-c1cc3cc(O)ccc3[nH]1)nn2Cc1cccnc1 in terms of IC50 is > 500 nM

The measured IC50 associated with CC(=O)N1CCC(n2nc(-c3cc4cc(O)ccc4[nH]3)c3c(N)ncnc32)CC1 reads > 500 nM

What the record says about CNC(=O)CCn1nc(-c2cc3cc(O)ccc3[nH]2)c2c(N)ncnc21 : IC50 is > 500 nM

Form: molecule = COc1cc(Cl)c2[nH]c(-c3nn(C4CCOCC4)c4ncnc(N)c34)cc2c1 ; IC50 = > 500 nM

So, CC(C)n1nc(-c2cc3c(Cl)ccc(O)c3[nH]2)c2c(N)ncnc21 ? Its IC50 was > 500 nM
